// reported inhibition per item
tested_system: UniProtKB Q13822
protocol_summary: Inhibition of C-terminal FLAG tagged human recombinant ATX expressed in insect sf9 cells at 10 uM using FS-3 as substrate measured every 2 mins for 60 mins by FRET assay

[
  {
    "compound": "Cc1ccccc1Nc1nc(C2(C)CC3(CC(COCC(C)C)OC3=O)C(=O)O2)cs1 (configuration not stated)",
    "tested_system": "UniProtKB Q13822",
    "value_unit": "%",
    "inhibition": 40.8
  },
  {
    "compound": "O=C(O)c1ccccc1N1CCN(C(=O)COc2cccc(C(F)(F)F)c2)CC1",
    "tested_system": "UniProtKB Q13822",
    "value_unit": "%",
    "inhibition": 41.3
  },
  {
    "compound": "Cc1cc(C(=O)CSc2ccc(Cl)cc2)cc(C)c1OC(=O)N(C)C",
    "tested_system": "UniProtKB Q13822",
    "value_unit": "%",
    "inhibition": 6.06
  },
  {
    "compound": "CC(C)COc1cnc(SSc2ncc(OCC(C)C)cn2)nc1",
    "tested_system": "UniProtKB Q13822",
    "value_unit": "%",
    "inhibition": 20.6
  },
  {
    "compound": "CCC(C)c1ccc(OCC(=O)Nc2cc(OC)c(OC)cc2C(=O)O)cc1 (configuration not stated)",
    "tested_system": "UniProtKB Q13822",
    "value_unit": "%",
    "inhibition": -8.29
  },
  {
    "compound": "O=C(COc1cccc(F)c1)N1CCN(c2ccccc2[N+](=O)[O-])CC1",
    "tested_system": "UniProtKB Q13822",
    "value_unit": "%",
    "inhibition": 39.5
  },
  {
    "compound": "C=C(Br)C(=O)N1CCN(C(=O)CCSc2ccc3ccccc3c2)CC1",
    "tested_system": "UniProtKB Q13822",
    "value_unit": "%",
    "inhibition": 46.4
  },
  {
    "compound": "CC(C)(C)CN(Cc1cccc(CN)c1)C(=O)c1ccc(-c2ccccc2)nc1",
    "tested_system": "UniProtKB Q13822",
    "value_unit": "%",
    "inhibition": 32.5
  },
  {
    "compound": "CCCCCCCCCCCCCC(=O)NC(CCC(=O)O)C(=O)O (configuration not stated)",
    "tested_system": "UniProtKB Q13822",
    "value_unit": "%",
    "inhibition": 54.1
  },
  {
    "compound": "CC(C)c1ccc(NC(=O)c2cc([N+](=O)[O-])ccc2Cl)cc1",
    "tested_system": "UniProtKB Q13822",
    "value_unit": "%",
    "inhibition": 12.1
  },
  {
    "compound": "O=C(O)c1cccc(N2CCN(C(=O)COc3cccc(F)c3)CC2)c1",
    "tested_system": "UniProtKB Q13822",
    "value_unit": "%",
    "inhibition": 55.2
  },
  {
    "compound": "O=C(COc1ccc(F)cc1)N1CCN(c2ccccc2[N+](=O)[O-])CC1",
    "tested_system": "UniProtKB Q13822",
    "value_unit": "%",
    "inhibition": 42.4
  }
]
